- assay.target: T1, full length recombinant human 2N4R tau (human, UniProt P10636 1-758)
- T1 construct: bought from rPeptide; pHrodo Red maleimide-labelled where it stands in uptake assays; also called tau1-441; full length tau
- T1 sequence (P10636 other isoform, or with tags, fused parts or gaps limits assumed): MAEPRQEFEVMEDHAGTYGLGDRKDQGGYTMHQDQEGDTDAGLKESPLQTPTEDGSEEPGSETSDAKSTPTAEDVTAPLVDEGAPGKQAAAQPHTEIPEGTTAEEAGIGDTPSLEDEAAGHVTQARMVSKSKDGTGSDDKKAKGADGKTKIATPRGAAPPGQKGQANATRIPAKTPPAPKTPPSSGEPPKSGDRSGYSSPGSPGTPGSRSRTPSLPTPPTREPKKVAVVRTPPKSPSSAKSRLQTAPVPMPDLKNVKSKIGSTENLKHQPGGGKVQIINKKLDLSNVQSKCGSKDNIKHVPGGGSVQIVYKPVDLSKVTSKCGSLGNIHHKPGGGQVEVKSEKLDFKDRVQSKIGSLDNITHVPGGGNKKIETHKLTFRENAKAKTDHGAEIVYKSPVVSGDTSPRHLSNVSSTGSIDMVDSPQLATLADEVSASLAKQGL
- protocol.summary: SPR SCK, IgG on Protein A, tau in flow
pKd: −log10 of the molar value.
In this section, each of the binders is paired with its reported pKd.
measurement.name: pKd

#44_VH4VK4_H01/pVL (antibody, V domains shown, also called Clone VH4_H01; #44_VH4_H01) VH: QVQLQESGPGLVKPSETLSLTCTVSGIDLSSYAMAWVRQAPGKGLEWIGCIDRRGGTFYASWVKGRFTISKDTSKTTVDLQMTSLTAEDTATYFCARDVGSFDVWGQGTLVTVSS VL: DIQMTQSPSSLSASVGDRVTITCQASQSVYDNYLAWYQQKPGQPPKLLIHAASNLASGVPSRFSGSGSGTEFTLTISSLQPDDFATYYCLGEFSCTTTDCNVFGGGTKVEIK :: 8.57
#44_VH4VK4_H16-H04/pVL (antibody, V domains shown, also called Clone VH4_H16_H04; #44_VH4_H16-H04) VH: QVQLQESGPGLVKPSETLSLTCTVSGIDLSSYAMAWVRQAPGKGLEWIGAIDRAGNTFYASWVKGRFTISKDTSKTTVDLQMTSLTAEDTATYFCARDAGSFHPWGQGTLVTVSS VL: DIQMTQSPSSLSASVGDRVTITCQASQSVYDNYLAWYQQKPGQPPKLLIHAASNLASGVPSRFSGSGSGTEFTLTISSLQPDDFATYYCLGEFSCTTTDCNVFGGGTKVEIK :: 9.08
#44_VH4VK4_H13/pVL (antibody, V domains shown, also called Clone VH4_H13; #44_VH4_H13) VH: QVQLQESGPGLVKPSETLSLTCTVSGIDLSSYAMAWVRQAPGKGLEWIGAIDSAGNTFYASWVKGRFTISKDTSKTTVDLQMTSLTAEDTATYFCARDSGAFDPWGQGTLVTVSS VL: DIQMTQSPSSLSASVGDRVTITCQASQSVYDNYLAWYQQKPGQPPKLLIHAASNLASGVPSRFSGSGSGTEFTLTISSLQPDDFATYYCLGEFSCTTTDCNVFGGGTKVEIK :: 7.76
#44_VH4VK4 pVH/L2 (antibody, V domains shown, also called Clone VK4_L2; #44_VK4_L2) VH: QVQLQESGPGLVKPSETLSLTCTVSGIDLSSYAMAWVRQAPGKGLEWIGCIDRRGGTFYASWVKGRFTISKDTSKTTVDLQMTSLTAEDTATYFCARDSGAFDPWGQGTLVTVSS VL: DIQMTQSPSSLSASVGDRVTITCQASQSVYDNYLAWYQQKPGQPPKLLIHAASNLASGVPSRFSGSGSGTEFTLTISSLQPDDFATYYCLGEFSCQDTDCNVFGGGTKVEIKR :: 8.13
#44_VH4VK4_H03/pVL (antibody, V domains shown, also called Clone VH4_H03; #44_VH4_H03) VH: QVQLQESGPGLVKPSETLSLTCTVSGIDLSSYAMAWVRQAPGKGLEWIGCIDRRGGTFYASWVKGRFTISKDTSKTTVDLQMTSLTAEDTATYFCARDAGAFDVWGQGTLVTVSS VL: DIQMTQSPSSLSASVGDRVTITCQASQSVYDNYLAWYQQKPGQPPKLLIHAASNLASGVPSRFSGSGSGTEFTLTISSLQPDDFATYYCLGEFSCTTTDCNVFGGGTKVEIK :: 8.19

Where do the numbers come from? From patent US20250270301A1.
